The reader will find reported melting point values listed item by item below.

Example entries and their recorded answers appear below.
COc1cc2c(Oc3ccc(NS(=O)(=O)c4ccccc4OC(F)(F)F)cc3C)ccnc2cc1OCCCN1CCC(C)CC1 [Example 174]    168 to 169 °C
COc1cc2c(Oc3ccc(NS(=O)(=O)c4cc(F)ccc4F)cc3OC)ccnc2cc1OCCCN1CCC(C)CC1 [Example 207]    170 to 172 °C
COc1cc2c(Oc3ccc(NS(=O)(=O)c4cnc(C)[nH]4)cc3F)ccnc2cc1OCCCN1CCN(C)CC1 [Example 170]    215 to 217 °C
COc1cc2c(Oc3ccc(NS(=O)(=O)c4cccc5cccnc45)cc3F)ccnc2cc1OCCCN1CCCC(C)C1 (stereo not shown) [Example 74]    190 to 191 °C

Provide only the value of recorded melting point for COc1cc2c(Oc3ccc(NS(=O)(=O)c4ccccc4OC)cc3F)ccnc2cc1OCCN1CCOCC1 [Example 103]
182 to 183 °C

Provide only the value of recorded melting point for COc1cc2c(Oc3ccc(NS(=O)(=O)c4ccccc4)cc3F)ccnc2cc1OCCCN1CCCC(C)C1 (stereo not shown) [Example 36]
160 to 161 °C

Provide only the value of recorded melting point for COc1cccc(S(=O)(=O)Nc2ccc(Oc3ccnc4cc(OCCCN5CCCC(C)C5)c(OC)cc34)c(F)c2)c1 (stereo not shown) [Example 42]
172 to 174 °C
